Data credit: patent US6737383B1

Exercise: state measured Rape plant response rating for each of the molecules provided.
Test system: rape
Assay: Test B pre/postemergence rape
Assay type: in vivo, Brassica napus
Details: Preemergence, Rate 125 g/ha; scale 0 to 10, 0 is no effect, 10 is complete control
Answers are plain numbers.

Guide cases for Rape plant response rating, answers given:
Compound Structure: COCn1c(=O)on(C(=O)N(c2ccc(Cl)cc2)C(C)C)c1=O
Outcome Measure: Rape plant response rating
Measured: 0
//
Compound Structure: C=CCCCn1c(=O)on(C(=O)N(c2ccc(F)cc2F)C(C)C)c1=O
Outcome Measure: Rape plant response rating
Measured: 1
//
Compound Structure: CC(C)N(C(=O)n1oc(=O)n(CCC2OCCO2)c1=O)c1ccc(Cl)cc1
Outcome Measure: Rape plant response rating
Measured: 0

Here is the next item to consider.
Given CC(C)N(C(=O)n1oc(=O)n(CC2CC2)c1=O)c1ccccc1 , respond with its Rape plant response rating.
0
